B1: TPR 5TU (parent)
chain: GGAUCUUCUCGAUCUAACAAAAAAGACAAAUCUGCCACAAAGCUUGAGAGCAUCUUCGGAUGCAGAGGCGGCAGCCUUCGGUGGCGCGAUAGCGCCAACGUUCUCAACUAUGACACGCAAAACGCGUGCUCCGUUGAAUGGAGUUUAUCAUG

Variants of: B1
protocol text: polymerase ribozyme fitness, log enrichment relative to wild type (log ratio); higher = more active; in vitro selection for triplet polymerase activity
This sample holds only a part of the variants without activity.
measurement kind: polymerase ribozyme fitness (log ratio)

Q. Read the entry A37G C131U U134C and write its reported polymerase ribozyme fitness (log ratio).
A. -1.56
